experimentSummary: Compound chemical stability in PBS (pH 6.5)
Format: physicochemical
appliedConditions: 120 minutes
recordedEndpoint: % Remaining (%)

Here's what some known entries look like.
compound: CCOC(=O)N(CCc1cc(OC)ccc1OC)Cc1cc(C)cc(Cl)c1 [Compound 5]
measureUnit: %
% Remaining: 101
--
compound: COc1ccc(OC)c(CCN(Cc2cc(C)cc(Cl)c2)C(=O)OCc2oc(=O)oc2C)c1 [Compound 3]
measureUnit: %
% Remaining: 89
--
compound: COc1ccc(OC)c(CCN(Cc2cc(C)cc(Cl)c2)C(=O)OC(C)OC(=O)C(C)(C)C)c1 (centres unmarked) [Compound 4]
measureUnit: %
% Remaining: 102

P. COc1ccc(OC)c(CCN(Cc2cc(C)cc(Cl)c2)C(=O)CN)c1 [Compound 6]
Q. COc1ccc(OC)c(CCN(Cc2cc(C)cc(Cl)c2)Cc2oc(=O)oc2C)c1 [Compound 2]
I'm curious whether P or Q has the smaller % Remaining number. Which is it? // respond with label for picked entry
Q
(Q: 15%, P: 93%)

---

experimentSummary: Compound chemical stability in PBS (pH 6.5)
Assay type: physicochemical
appliedConditions: 240 minutes
recordedEndpoint: % Remaining (%)

molecule: COc1ccc(OC)c(CCN(Cc2cc(C)cc(Cl)c2)C(=O)OCc2oc(=O)oc2C)c1
measureUnit: %
% Remaining: 67
//
molecule: CCOC(=O)N(CCc1cc(OC)ccc1OC)Cc1cc(C)cc(Cl)c1
measureUnit: %
% Remaining: 94
//
molecule: COc1ccc(OC)c(CCN(Cc2cc(C)cc(Cl)c2)C(=O)OC(C)OC(=O)C(C)(C)C)c1 (centres unmarked)
measureUnit: %
% Remaining: 116

A. COc1ccc(OC)c(CCN(Cc2cc(C)cc(Cl)c2)C(=O)CN)c1
B. COc1ccc(OC)c(CCN(Cc2cc(C)cc(Cl)c2)Cc2oc(=O)oc2C)c1
I'm curious whether A or B has the smaller % Remaining number. Which is it? Mark your selection by writing its label.
B
(B: 2%, A: 93%)

---

experimentSummary: Compound mouse plasma stability
Format: in vitro ADME
appliedConditions: 60 minutes
recordedEndpoint: % Remaining (%)

molecule: COc1ccc(OC)c(CCN(Cc2cc(C)cc(Cl)c2)Cc2oc(=O)oc2C)c1 [Compound 2]
% Remaining [%]: 61

A. COc1ccc(OC)c(CCN(Cc2cc(C)cc(Cl)c2)C(=O)OCc2oc(=O)oc2C)c1 [Compound 3]
B. CCOC(=O)N(CCc1cc(OC)ccc1OC)Cc1cc(C)cc(Cl)c1 [Compound 5]
Compare % Remaining: is it lower for A or for B ? Lab log: write the label of the selected item as the result.
A

---

experimentSummary: Compound chemical stability in SGF without pepsin
Assay type: physicochemical
appliedConditions: 240 minutes
recordedEndpoint: % Remaining (%)

For orientation, consider the following solved cases.
compound: COc1ccc(OC)c(CCN(Cc2cc(C)cc(Cl)c2)C(=O)CN)c1
measureUnit: %
observedResult: 96

compound: CCOC(=O)N(CCc1cc(OC)ccc1OC)Cc1cc(C)cc(Cl)c1
measureUnit: %
observedResult: 101

compound: COc1ccc(OC)c(CCN(Cc2cc(C)cc(Cl)c2)C(=O)OC(C)OC(=O)C(C)(C)C)c1 (centres unmarked)
measureUnit: %
observedResult: 88

a. COc1ccc(OC)c(CCN(Cc2cc(C)cc(Cl)c2)Cc2oc(=O)oc2C)c1
b. COc1ccc(OC)c(CCN(Cc2cc(C)cc(Cl)c2)C(=O)OCc2oc(=O)oc2C)c1
Endpoint returns the identifier whose % Remaining is numerically larger, either a or b . Indicate which entry you chose by stating its label.
b
(b: 107%, a: 72%)

---

experimentSummary: Compound chemical stability in PBS (pH 6.5)
Format: physicochemical
appliedConditions: 0 minutes
recordedEndpoint: % Remaining (%)

molecule: COc1ccc(OC)c(CCN(Cc2cc(C)cc(Cl)c2)Cc2oc(=O)oc2C)c1
% Remaining, %: 100
//
molecule: COc1ccc(OC)c(CCN(Cc2cc(C)cc(Cl)c2)C(=O)CN)c1
% Remaining, %: 100
//
molecule: COc1ccc(OC)c(CCN(Cc2cc(C)cc(Cl)c2)C(=O)OCc2oc(=O)oc2C)c1
% Remaining, %: 100
//
molecule: COc1ccc(OC)c(CCN(Cc2cc(C)cc(Cl)c2)C(=O)OC(C)OC(=O)C(C)(C)C)c1 (centres unmarked)
% Remaining, %: 100
//
molecule: CCOC(=O)N(CCc1cc(OC)ccc1OC)Cc1cc(C)cc(Cl)c1
% Remaining, %: 100

---

experimentSummary: Compound chemical stability in PBS (pH 6.5)
Assay type: physicochemical
appliedConditions: 60 minutes
recordedEndpoint: % Remaining (%)

Please review the following examples before continuing.
compound: CCOC(=O)N(CCc1cc(OC)ccc1OC)Cc1cc(C)cc(Cl)c1 [Compound 5]
measureUnit: %
% Remaining: 99
//
compound: COc1ccc(OC)c(CCN(Cc2cc(C)cc(Cl)c2)C(=O)CN)c1 [Compound 6]
measureUnit: %
% Remaining: 94
//
compound: COc1ccc(OC)c(CCN(Cc2cc(C)cc(Cl)c2)C(=O)OC(C)OC(=O)C(C)(C)C)c1 (centres unmarked) [Compound 4]
measureUnit: %
% Remaining: 101

P. COc1ccc(OC)c(CCN(Cc2cc(C)cc(Cl)c2)C(=O)OCc2oc(=O)oc2C)c1 [Compound 3]
Q. COc1ccc(OC)c(CCN(Cc2cc(C)cc(Cl)c2)Cc2oc(=O)oc2C)c1 [Compound 2]
In the pair P and Q , the larger recorded % Remaining belongs to which? Answer = label.
P
(P: 94%, Q: 43%)

---

experimentSummary: Compound chemical stability in SGF with pepsin
Assay type: physicochemical
appliedConditions: 60 minutes
recordedEndpoint: % Remaining (%)

molecule: CCOC(=O)N(CCc1cc(OC)ccc1OC)Cc1cc(C)cc(Cl)c1
% Remaining (%): 92
//
molecule: COc1ccc(OC)c(CCN(Cc2cc(C)cc(Cl)c2)C(=O)OCc2oc(=O)oc2C)c1
% Remaining (%): 105
//
molecule: COc1ccc(OC)c(CCN(Cc2cc(C)cc(Cl)c2)C(=O)CN)c1
% Remaining (%): 97
//
molecule: COc1ccc(OC)c(CCN(Cc2cc(C)cc(Cl)c2)Cc2oc(=O)oc2C)c1
% Remaining (%): 93
//
molecule: COc1ccc(OC)c(CCN(Cc2cc(C)cc(Cl)c2)C(=O)OC(C)OC(=O)C(C)(C)C)c1 (centres unmarked)
% Remaining (%): 96

---

experimentSummary: Compound chemical stability in SGF with pepsin
Type: physicochemical
appliedConditions: 240 minutes
Procedure: Compounds 1-6 were assessed for their stability in various environments, including phosphate buffered saline (PBS), simulated gastric fluid (SGF) with pepsin, SGF without pepsin, and mouse plasma, using standard stability assay protocols.
recordedEndpoint: % Remaining (%)

compound: COc1ccc(OC)c(CCN(Cc2cc(C)cc(Cl)c2)C(=O)OCc2oc(=O)oc2C)c1 [Compound 3]
% Remaining (%): 106
--
compound: COc1ccc(OC)c(CCN(Cc2cc(C)cc(Cl)c2)C(=O)CN)c1 [Compound 6]
% Remaining (%): 94
--
compound: COc1ccc(OC)c(CCN(Cc2cc(C)cc(Cl)c2)C(=O)OC(C)OC(=O)C(C)(C)C)c1 (centres unmarked) [Compound 4]
% Remaining (%): 105
--
compound: COc1ccc(OC)c(CCN(Cc2cc(C)cc(Cl)c2)Cc2oc(=O)oc2C)c1 [Compound 2]
% Remaining (%): 70
--
compound: CCOC(=O)N(CCc1cc(OC)ccc1OC)Cc1cc(C)cc(Cl)c1 [Compound 5]
% Remaining (%): 80

---

experimentSummary: Compound mouse plasma stability
Assay type: in vitro ADME
appliedConditions: 0 minutes
recordedEndpoint: % Remaining (%)

compound: COc1ccc(OC)c(CCN(Cc2cc(C)cc(Cl)c2)Cc2oc(=O)oc2C)c1
% Remaining [%]: 100

compound: COc1ccc(OC)c(CCN(Cc2cc(C)cc(Cl)c2)C(=O)CN)c1
% Remaining [%]: 100

compound: CCOC(=O)N(CCc1cc(OC)ccc1OC)Cc1cc(C)cc(Cl)c1
% Remaining [%]: 100

compound: COc1ccc(OC)c(CCN(Cc2cc(C)cc(Cl)c2)C(=O)OCc2oc(=O)oc2C)c1
% Remaining [%]: 100

compound: COc1ccc(OC)c(CCN(Cc2cc(C)cc(Cl)c2)C(=O)OC(C)OC(=O)C(C)(C)C)c1 (centres unmarked)
% Remaining [%]: 100

---

experimentSummary: Compound mouse plasma stability
Type: in vitro ADME
appliedConditions: 240 minutes
Protocol: Compounds 1-6 were assessed for their stability in various environments, including phosphate buffered saline (PBS), simulated gastric fluid (SGF) with pepsin, SGF without pepsin, and mouse plasma, using standard stability assay protocols.
recordedEndpoint: % Remaining (%)

Examples from the recorded data:
compound: COc1ccc(OC)c(CCN(Cc2cc(C)cc(Cl)c2)Cc2oc(=O)oc2C)c1
% Remaining, %: 20
//
compound: CCOC(=O)N(CCc1cc(OC)ccc1OC)Cc1cc(C)cc(Cl)c1
% Remaining, %: 87
//
compound: COc1ccc(OC)c(CCN(Cc2cc(C)cc(Cl)c2)C(=O)OC(C)OC(=O)C(C)(C)C)c1 (centres unmarked)
% Remaining, %: 00

P. COc1ccc(OC)c(CCN(Cc2cc(C)cc(Cl)c2)C(=O)CN)c1
Q. COc1ccc(OC)c(CCN(Cc2cc(C)cc(Cl)c2)C(=O)OCc2oc(=O)oc2C)c1
When the recorded % Remaining values are compared, which is smaller: that of P or that of Q ? Answer with the label corresponding to your selection.
Q
(Q: 00%, P: 86%)
